Biological target: recombinant human MAO-B (Homo sapiens, UniProt P27338)
Sequence (P27338 whole entry): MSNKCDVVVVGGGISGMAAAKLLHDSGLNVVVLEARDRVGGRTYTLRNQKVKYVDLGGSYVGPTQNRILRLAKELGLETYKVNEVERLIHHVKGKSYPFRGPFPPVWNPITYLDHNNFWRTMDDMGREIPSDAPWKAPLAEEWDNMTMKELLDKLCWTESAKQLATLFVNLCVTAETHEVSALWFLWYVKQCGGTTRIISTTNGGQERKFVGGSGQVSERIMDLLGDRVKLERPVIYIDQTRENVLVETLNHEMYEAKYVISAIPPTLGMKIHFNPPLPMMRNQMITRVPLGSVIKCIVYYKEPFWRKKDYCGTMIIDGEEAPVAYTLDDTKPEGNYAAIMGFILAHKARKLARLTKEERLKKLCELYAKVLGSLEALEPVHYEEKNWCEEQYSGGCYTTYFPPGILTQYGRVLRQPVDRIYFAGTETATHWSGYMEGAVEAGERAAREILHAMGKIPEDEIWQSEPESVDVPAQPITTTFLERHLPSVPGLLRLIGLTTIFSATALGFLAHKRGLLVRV
Assay: MAO-B inhibitory activities in vitro (kynuramine fluorescence)
Settings: calculated from linear equation of three concentrations; read-out: IC50 of MAO-B inhibition
Protocol: The kynuramine was used as the MAO-B substrate to generate a fluorescent product, 4-hydroxyquinoline, which was used to screen MAO-B inhibitory activity assays. […] The MAO-B inhibition (%) was calculated as the following: [(Fblank − Fsample)/(Fblank)] × 100%. The IC50 of MAO-B activity was calculated from each linear equation from three used concentrations for MAO-B inhibitions.
measuredParameter: IC50 (µM)

compound | studyTarget | measuredParameter | observedResult
Oc1ccc([C@H]2c3c(O)cc(O)cc3[C@H]3c4c(cc(O)cc4[C@@H]2c2cc(/C=C/c4cc(O)cc5c4[C@H](c4cc(O)cc(O)c4)[C@@H](c4ccc(O)cc4)O5)ccc2O)O[C@@H]3c2ccc(O)cc2)cc1 [vitisin A, (+)-vitisin A] | recombinant human MAO-B (Homo sapiens, UniProt P27338) | IC50 | 4.94
Oc1ccc(/C=C/c2cc(O)cc(O)c2)cc1 [resveratrol, reference compound] | recombinant human MAO-B (Homo sapiens, UniProt P27338) | IC50 | 41.3
Oc1ccc([C@H]2c3c(O)cc(O)cc3[C@H]3c4c(cc(O)cc4[C@@H]2[C@H]2c4cc(O)cc5c4[C@H](c4cc(O)cc(O)c4[C@@H]2c2ccc(O)cc2)[C@@H](c2ccc(O)cc2)O5)O[C@@H]3c2ccc(O)cc2)cc1 [hopeaphenol, (+)-hopeaphenol] | recombinant human MAO-B (Homo sapiens, UniProt P27338) | IC50 | 88.2
Oc1ccc([C@H]2Oc3cc(O)cc(/C=C/c4ccc5c(c4)[C@@H](c4cc(O)cc6c4[C@H](c4cc(O)cc(O)c4)[C@@H](c4ccc(O)cc4)O6)[C@H](c4ccc(O)cc4)O5)c3[C@@H]2c2cc(O)cc(O)c2)cc1 [vitisin B, (−)-vitisin B] | recombinant human MAO-B (Homo sapiens, UniProt P27338) | IC50 | 1.08
